Consider the following compounds; for each one, report its growth inhibition.
# assay.overview: NCI Yeast Anticancer Drug Screen. Data for the rad50EPP+ strain (AID 151);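 note: 0% = growth of vehicle-treated control cultures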
# study.conditions: S. cerevisiae rad50 mutant strain, at 33.0 µM, hits give high values
The panel holds about 79,000 compounds, 15% with a hit somewhere; the sample as a whole holds those more often.
Give bare numbers, in %.

Some entries whose results are on file:
| compound | units.of.measure | growth inhibition |
| --- | --- | --- |
| Cc1c(N)nc([C@H](CC(N)=O)NC[C@H](N)C(N)=O)nc1C(=O)N[C@H](C(=O)N[C@H](C)[C@@H](O)[C@H](C)C(=O)N[C@H](C(=O)NCCc1nc(-c2nc(C(=O)NCCC[S+](C)C)cs2)cs1)[C@@H](C)O)C(OC1OC(CO)C(O)C(O)C1OC1OC(CO)C(O)C(OC(N)=O)C1O)c1cnc[nH]1 (some centres undefined) | % | 68 |
| O=[N+]([O-])c1ccc(-n2nc3ccc4c(no[n+]4[O-])c3[n+]2[O-])c([N+](=O)[O-])c1 | % | 26 |
| CCNC(=O)OCC1C2=C(C(=O)C(C)=C(N)C2=O)N2CC3C(N3C)C12OC (centres undefined) | % | 13 |

For each of the compounds below, note its growth inhibition.
1. CN(C)CCSC1=Nc2ccc(Cl)cc2C(c2ccccc2Cl)=NC1
2. O=c1c2ccccc2[se]n1-c1cccnc1
3. CC1CC(Br)C(=O)O1 (centres undefined)
4. O=P(Oc1ccc(Cl)cc1)(Oc1ccc(Cl)cc1)N1CC1
5. C[CH2][Sn]([CH2]C)([O]S(C)(=O)=O)[O]S(C)(=O)=O
6. CCCCCNC(=O)c1c(O)[nH]c(=S)[nH]c1=O

## Output
[-3, 98, 88, 6, -14, 30]

The reported measurements were obtained from PubChem BioAssay (NCI).
